src = patent US20250163162A1

- systemName: T1, IL10Rα/IL2Rγ receptor (human) (UniProt Q13651)
- T1 sequence (looked up) 1: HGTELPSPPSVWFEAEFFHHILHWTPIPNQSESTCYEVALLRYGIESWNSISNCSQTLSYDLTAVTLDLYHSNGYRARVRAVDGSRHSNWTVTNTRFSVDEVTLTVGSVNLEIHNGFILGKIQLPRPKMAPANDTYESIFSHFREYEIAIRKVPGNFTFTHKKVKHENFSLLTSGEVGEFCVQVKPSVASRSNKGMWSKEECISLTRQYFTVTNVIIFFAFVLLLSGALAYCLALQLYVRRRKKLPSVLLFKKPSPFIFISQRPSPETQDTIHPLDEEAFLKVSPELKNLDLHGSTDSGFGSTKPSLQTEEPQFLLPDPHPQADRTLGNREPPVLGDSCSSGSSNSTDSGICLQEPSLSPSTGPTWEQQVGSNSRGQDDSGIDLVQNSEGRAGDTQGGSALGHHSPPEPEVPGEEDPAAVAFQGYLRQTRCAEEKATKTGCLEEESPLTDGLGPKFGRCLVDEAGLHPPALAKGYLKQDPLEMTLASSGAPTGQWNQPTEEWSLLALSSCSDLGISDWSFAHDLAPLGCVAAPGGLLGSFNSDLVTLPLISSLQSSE
- T1 sequence (looked up) 2: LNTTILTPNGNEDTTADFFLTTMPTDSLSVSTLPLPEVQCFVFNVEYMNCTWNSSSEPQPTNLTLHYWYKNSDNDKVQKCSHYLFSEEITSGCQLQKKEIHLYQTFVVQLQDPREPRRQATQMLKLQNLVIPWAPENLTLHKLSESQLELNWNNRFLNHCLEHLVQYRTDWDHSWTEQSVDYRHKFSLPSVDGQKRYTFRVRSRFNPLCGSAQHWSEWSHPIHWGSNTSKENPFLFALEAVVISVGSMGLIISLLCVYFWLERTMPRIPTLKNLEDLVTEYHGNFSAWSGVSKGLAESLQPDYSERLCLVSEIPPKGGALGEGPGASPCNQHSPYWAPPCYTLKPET
- methodSummary: cell-based or functional assay
Quick reference for IL-9 secretion, CD8 T cells, at 1 µM among some binders
Hi, when you answer, please include the unit after the number. Thanks!

Worked examples follow.
{"binder": "hIL10Ra_VHH14 - hIL2Rg_VHH19, linker GGGS, tag Fc (bispecific antibody, not shown: a dimerising Fc or GST) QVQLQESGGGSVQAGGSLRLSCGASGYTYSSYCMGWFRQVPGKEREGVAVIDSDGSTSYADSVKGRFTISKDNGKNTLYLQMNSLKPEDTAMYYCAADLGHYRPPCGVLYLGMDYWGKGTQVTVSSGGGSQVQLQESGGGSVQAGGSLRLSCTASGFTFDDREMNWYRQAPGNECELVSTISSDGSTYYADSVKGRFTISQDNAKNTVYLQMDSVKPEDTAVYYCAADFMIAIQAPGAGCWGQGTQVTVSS", "result": "1780 pg/mL"}
{"binder": "hIL10Ra_VHH14 - hIL2Rg_VHH19, linker GS, tag his (bispecific antibody, not shown: small tags and cut ends) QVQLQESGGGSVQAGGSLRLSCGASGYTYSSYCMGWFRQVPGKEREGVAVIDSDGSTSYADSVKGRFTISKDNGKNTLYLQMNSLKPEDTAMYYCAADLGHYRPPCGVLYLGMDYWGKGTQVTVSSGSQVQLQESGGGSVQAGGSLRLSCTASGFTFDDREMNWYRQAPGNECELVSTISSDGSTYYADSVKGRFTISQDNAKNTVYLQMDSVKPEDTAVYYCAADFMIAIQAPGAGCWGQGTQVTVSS", "result": "1610 pg/mL"}
{"binder": "hIL10Ra_VHH14 - hIL2Rg_VHH19, linker GGSGGS, tag his (bispecific antibody, not shown: small tags and cut ends) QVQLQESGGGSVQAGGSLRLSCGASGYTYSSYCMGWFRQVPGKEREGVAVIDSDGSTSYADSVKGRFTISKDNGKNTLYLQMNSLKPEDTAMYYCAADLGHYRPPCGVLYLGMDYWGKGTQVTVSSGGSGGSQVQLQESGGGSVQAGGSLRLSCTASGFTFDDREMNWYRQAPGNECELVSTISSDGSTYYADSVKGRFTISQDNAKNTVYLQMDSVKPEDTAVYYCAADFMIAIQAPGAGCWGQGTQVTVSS", "result": "1440 pg/mL"}

From here, focus on the item given below.
Query: Indicate the recorded IL-9 secretion, CD8 T cells, at 1 µM value for this binder: hIL10Ra_VHH14 - hIL2Rg_VHH19, linker …, tag his (bispecific antibody, not shown: small tags and cut ends) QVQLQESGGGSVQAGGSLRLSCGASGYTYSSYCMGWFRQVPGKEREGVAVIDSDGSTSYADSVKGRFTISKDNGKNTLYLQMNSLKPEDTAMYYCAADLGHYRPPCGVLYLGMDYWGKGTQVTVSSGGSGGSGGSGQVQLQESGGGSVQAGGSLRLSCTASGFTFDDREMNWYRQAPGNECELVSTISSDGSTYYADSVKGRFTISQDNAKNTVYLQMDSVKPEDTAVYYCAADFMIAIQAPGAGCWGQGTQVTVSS
Result: 1590 pg/mL
